- assayOverview: Aqueous solubilization in 1/15 M phosphate buffer (pH 7.4) under UV, visible light or dark, with cis ratio in solution by HPLC
- Assay type: physicochemical
- cond: phosphate buffer, pH 7.4, white-light irradiation, after 1 and 5 h, 37 °C; read-out: solubilization
assayEndpoint: solubility

Requested read-out: solubility. Entry: "CC(C)n1nc(/N=N/c2ccccc2)c2c(N)ncnc21"
~5 µg/mL

###

- assayOverview: Aqueous dissolution in the dark of UV-irradiated crystals of 3
- Assay type: physicochemical
- cond: phosphate buffer, 37 °C, pH 7.4, aqueous buffer, thermodynamic from solid, UV-irradiated crystals, entry 2, dark, 37 °C, 1 h; read-out: Aqueous solubilized 3
assayEndpoint: solubility at 1 h (µg/mL)
Answers are plain numbers, in µg/mL.

Report solubility at 1 h for "CC(C)n1nc(/N=N/c2ccccc2)c2c(N)ncnc21" please.
3.4

###

- assayOverview: Aqueous solubilization in 1/15 M phosphate buffer (pH 7.4) under UV, visible light or dark, with cis ratio in solution by HPLC
- Format: physicochemical
- cond: phosphate buffer, pH 7.4, UV light (mercury lamp 0.5 mW/cm2), 37 °C, shake time 5 h; read-out: Solubilized 3
assayEndpoint: solubility at 5 h
Report the figure along with its unit, number first.

Query: solubility at 5 h; subject: CC(C)n1nc(/N=N/c2ccccc2)c2c(N)ncnc21 [Compound 3]
24.7 µg/mL

###

- assayOverview: Aqueous dissolution in the dark of UV-irradiated crystals of 3
- Type: physicochemical
- cond: phosphate buffer, 37 °C, pH 7.4, aqueous buffer, thermodynamic from solid, UV-irradiated crystals (365 nm LED 344 mW/cm2, 37 °C, 3 h), entry 1, dark, 37 °C, 1 h; read-out: Aqueous solubilized 3
- Text: At the photostationary state under UV irradiation, the equilibria shown in Fig. 3a should be in balance. Here, we are interested in the transient process, i.e., how cis-3 in solution increases when UV irradiation is started. […] Figure 3 (a) Possible equilibria and routes for generating cis-3 in solution. (b) Kinetics of aqueous dissolution of UV-irradiated crystals of 3, measured in the dark. […]
assayEndpoint: solubility at 1 h
Write the numeric value and append its unit.

Name the recorded solubility at 1 h for CC(C)n1nc(/N=N/c2ccccc2)c2c(N)ncnc21 [Compound 3] .
3.7 µg/mL

###

- assayOverview: Aqueous solubilization in 1/15 M phosphate buffer (pH 7.4) under UV, visible light or dark, with cis ratio in solution by HPLC
- Assay type: physicochemical
- cond: phosphate buffer, pH 7.4, Dark, 37 °C, shake time 1 h; read-out: Solubility
assayEndpoint: solubility at 1 h (µg/mL)
One number for each entry, in µg/mL.

# query: solubility at 1 h of entry "CC(C)n1nc(/N=N/c2ccccc2)c2c(N)ncnc21"
3

###

- assayOverview: Aqueous dissolution in the dark of UV-irradiated crystals of 3
- Type: physicochemical
- cond: phosphate buffer, 37 °C, pH 7.4, aqueous buffer, thermodynamic from solid, UV-irradiated crystals, entry 3, dark, 37 °C, 1 h; read-out: Aqueous solubilized 3
assayEndpoint: solubility at 1 h
I'd appreciate it if you wrote the number followed by its unit.

Would you kindly share the measured solubility at 1 h for "CC(C)n1nc(/N=N/c2ccccc2)c2c(N)ncnc21" ?
3.2 µg/mL

###

- assayOverview: Aqueous solubilization of 3 under irradiation at various wavelengths (xenon flash lamp, 96-well plate)
- Format: physicochemical
- cond: phosphate buffer, 21 °C, pH 7.4, aqueous buffer, thermodynamic from solid, wavelength 485 nm, bandwidth 14 nm, room temperature, 1 h; read-out: Aqueous solubilized 3
assayEndpoint: solubility at 1 h
Please format your answer as a value with the unit trailing.

Quick one: solubility at 1 h of "CC(C)n1nc(/N=N/c2ccccc2)c2c(N)ncnc21" ?
0.47 µg/mL

###

- assayOverview: Aqueous solubilization in 1/15 M phosphate buffer (pH 7.4) under UV, visible light or dark, with cis ratio in solution by HPLC
- Type: physicochemical
- cond: phosphate buffer, pH 7.4, phosphate buffer, in the dark, after 0.5, 1 and 5 h at 37 °C; read-out: aqueous solubility
assayEndpoint: solubility

What does the record list as solubility for "CC(C)n1nc(/N=N/c2ccccc2)c2c(N)ncnc21" ?
~3 µg/mL

###

- assayOverview: Aqueous solubilization in 1/15 M phosphate buffer (pH 7.4) under UV, visible light or dark, with cis ratio in solution by HPLC
- Assay type: physicochemical
- cond: phosphate buffer, pH 7.4, Visible light, 37 °C, shake time 1 h; read-out: Solubilized 3
assayEndpoint: solubility at 1 h (µg/mL)
Answers are plain numbers, in µg/mL.

Given the entry "CC(C)n1nc(/N=N/c2ccccc2)c2c(N)ncnc21" , report its measured solubility at 1 h.
4.6

###

- assayOverview: Aqueous solubilization of 3 under irradiation at various wavelengths (xenon flash lamp, 96-well plate)
- Format: physicochemical
- cond: phosphate buffer, 21 °C, pH 7.4, aqueous buffer, thermodynamic from solid, wavelength 405 nm, bandwidth 8 nm, room temperature, 1 h; read-out: Aqueous solubilized 3
assayEndpoint: solubility at 1 h (µg/mL)
Answers are plain numbers, in µg/mL.

Please report the recorded solubility at 1 h for "CC(C)n1nc(/N=N/c2ccccc2)c2c(N)ncnc21" .
2.4

###

Please go through the items and note down their solubility at 24 h.
- assayOverview: Aqueous solubility of stilbenes 1 and 2 in phosphate buffer
- Format: physicochemical
- cond: 20 °C, aqueous buffer, thermodynamic from solid, 20 °C for 24 h
One number for each entry, in µg/mL.

1) COc1ccc(/C=C\c2ccc(OC)c(OC)c2)cc1OC [cis-1]
0.673

Which solubility at 24 h is reported for this compound? COc1ccc(/C=C/c2ccc(OC)c(OC)c2)cc1OC [trans-2]
0.0475

###

- assayOverview: Aqueous solubilization in 1/15 M phosphate buffer (pH 7.4) under UV, visible light or dark, with cis ratio in solution by HPLC
- Assay type: physicochemical
- cond: phosphate buffer, pH 7.4, UV light (mercury lamp 0.5 mW/cm2), 37 °C, shake time 1 h; read-out: Solubilized 3
assayEndpoint: solubility at 1 h (µg/mL)
Numbers only, in µg/mL.

What solubility at 1 h value was documented for this compound, CC(C)n1nc(/N=N/c2ccccc2)c2c(N)ncnc21 [Compound 3] ?
14.9

###

- assayOverview: LogPow by HPLC method (OECD 117)
- Assay type: physicochemical
- cond: reversed-phase HPLC column (Inertsil ODS-4)
assayEndpoint: chromatographic logP
Numbers only.

1) COc1ccc(/C=C/c2ccc(OC)c(OC)c2)cc1OC [trans-2]
3.2

Now for another entry.
Which chromatographic logP is listed for COc1ccc(/C=C\c2ccc(OC)c(OC)c2)cc1OC [cis-1] ?
3.3

###

- assayOverview: Aqueous solubilization in 1/15 M phosphate buffer (pH 7.4) under UV, visible light or dark, with cis ratio in solution by HPLC
- Format: physicochemical
- cond: phosphate buffer, pH 7.4, UV light (mercury lamp 0.5 mW/cm2), 37 °C, shake time 0.5 h; read-out: Solubilized 3
assayEndpoint: solubility at 0.5 h (µg/mL)
One number for each entry, in µg/mL.

Give the measured solubility at 0.5 h of CC(C)n1nc(/N=N/c2ccccc2)c2c(N)ncnc21 [Compound 3] .
11.1

###

- assayOverview: Aqueous solubilization of 3 under irradiation at various wavelengths (xenon flash lamp, 96-well plate)
- Format: physicochemical
- cond: phosphate buffer, 21 °C, pH 7.4, aqueous buffer, thermodynamic from solid, wavelength 535 nm, bandwidth 25 nm, room temperature, 1 h; read-out: Aqueous solubilized 3
- Method: Table S4. Aqueous solubilization and cis ratio of 3 under irradiation at various wavelengths through filters of […] Illumination was performed with a xenon lamp using repeated cycles of irradiation and shaking (5000 flashes, then shaking for 10 sec) through filters of various bandwidths at room temperature (20-22 °C) for 1 h. The cis ratio in the aqueous solution was evaluated by HPLC immediately after filtration, based on peak area. […]
assayEndpoint: solubility at 1 h (µg/mL)
Numbers only, in µg/mL.

Please give the measured solubility at 1 h for this compound: "CC(C)n1nc(/N=N/c2ccccc2)c2c(N)ncnc21"
0.57

###

- assayOverview: Aqueous solubilization in 1/15 M phosphate buffer (pH 7.4) under UV, visible light or dark, with cis ratio in solution by HPLC
- Type: physicochemical
- cond: phosphate buffer, pH 7.4, light intensity 4.56 mW/cm2, 365 nm LED, 37 °C, 1 h; read-out: Aqueous solubilized 3
assayEndpoint: solubility at 1 h (µg/mL)
Answers are plain numbers, in µg/mL.

Fill in the blank: the reported solubility at 1 h of "CC(C)n1nc(/N=N/c2ccccc2)c2c(N)ncnc21" is ____.
12.3

###

- assayOverview: Aqueous solubilization in 1/15 M phosphate buffer (pH 7.4) under UV, visible light or dark, with cis ratio in solution by HPLC
- Type: physicochemical
- cond: phosphate buffer, pH 7.4, UV light (mercury lamp 0.5 mW/cm2), 37 °C, shake time 3 h; read-out: Solubilized 3
assayEndpoint: solubility at 3 h (µg/mL)
Give bare numbers, in µg/mL.

solubility at 3 h for CC(C)n1nc(/N=N/c2ccccc2)c2c(N)ncnc21 [Compound 3] ?
18.4
